Test system: HL-60(TB) leukemia
Test: NCI-60 one-dose screen, 48 h (100 = growth as untreated, 0 = no growth, -100 = all killed)
Details: 10 µM unless noted
About 83,000 compounds went through this panel and 20% of them were active in at least one assay; those are over-represented in the sample as a whole. Active and inactive are the calls of the source. The calls were made as follows: active = growth percent below 10; inactive = the rest.
PROPERTY LABEL: growth

[[record]]
compound = "CSC1=Nc2c(c(C)c(-c3ccccc3)n2CCCCl)C2=NC(=O)CN12"
property_label = "growth"
reported_measurement = "27.4% (inactive)"

[[record]]
compound = "COC(=O)C(N)CC(C)C (stereo not given)"
property_label = "growth"
reported_measurement = "94.6% (inactive)"

[[record]]
compound = "O=C(NC(Cc1ccc(O)cc1)C(=O)N=Nc1c(O)[nH]c2ccccc12)c1ccccc1 (stereo not given)"
property_label = "growth"
reported_measurement = "101% (inactive)"

[[record]]
compound = "Nc1ccccc1SC1CC(=O)N(c2ccc(Cl)c(Cl)c2)C1=O (stereo not given)"
property_label = "growth"
reported_measurement = "139% (inactive)"

[[record]]
compound = "COc1ccccc1CNCCCCCCCCCCCCN1C(=O)c2ccc3c4c(ccc(c24)C1=O)C(=O)N(CCCCCCCCCCCCNCc1ccccc1OC)C3=O"
property_label = "growth"
reported_measurement = "85.8% (inactive)"

